target: hemagglutinin (HA) of influenza virus H1N1 A/California/07/09 (influenza A virus); test: cell-based or functional assay
quantity: neutralization titer (nM)
Give bare numbers, in nM.

Sample answers from the record:
Problem: Kindly indicate its recorded neutralization titer. Item: MD1212 (VHH) EVQLVESGGGLVQPGGSLRLSCAVSISIFDIYAMDWYRQAPGKQRDLVATSFRDGSTNYADSVKGRFTISRDNAKNTLYLQMNSLKPEDTAVYLCHVSLYRDPLGVAGGMGVYWGKGALVTVSSAAAGGGGSGGGGSGGGGSGGGGSGGGGSGGGGSGGGGSEVQLVESGGGLVQPGGSLRLSCAVSISIFDIYAMDWYRQAPGKQRDLVATSFRDGSTNYADSVKGRFTISRDNAKNTLYLQMNSLKPEDTAVYLCHVSLYRDPLGVAGGMGVYWGKGALVTVSS
Result: 3.7

Problem: Kindly indicate its recorded neutralization titer. Item: MD1209 (VHH) EVQLVESGGGLVQAGGSLKLSCAASGRTYAMGWFRQAPGKEREFVAHINALGTRTYYSDSVKGRFTISRDNAKNTEYLEMNNLKPEDTAVYYCTAQGQWRAAPVAVAAEYEFWGQGTQVTVSSAAAGGGGSGGGGSGGGGSGGGGSGGGGSGGGGSGGGGSEVQLVESGGGLVQAGGSLKLSCAASGRTYAMGWFRQAPGKEREFVAHINALGTRTYYSDSVKGRFTISRDNAKNTEYLEMNNLKPEDTAVYYCTAQGQWRAAPVAVAAEYEFWGQGTQVTVSS
Result: 10.1

---
Problem: Kindly indicate its recorded neutralization titer. Item: MD1210 (bispecific antibody) EVQLVESGGGLVQAGGSLKLSCAASGRTYAMGWFRQAPGKEREFVAHINALGTRTYYSDSVKGRFTISRDNAKNTEYLEMNNLKPEDTAVYYCTAQGQWRAAPVAVAAEYEFWGQGTQVTVSSAAAGGGGSGGGGSGGGGSGGGGSGGGGSGGGGSGGGGSEVQLVESGGGLVQPGGSLRLSCAVSISIFDIYAMDWYRQAPGKQRDLVATSFRDGSTNYADSVKGRFTISRDNAKNTLYLQMNSLKPEDTAVYLCHVSLYRDPLGVAGGMGVYWGKGALVTVSS
Result: 2.5
